ENDPOINT_NAME: melting point

>>> reading("COc1ccc([C@H]2c3cc(O)ccc3[C@@H](c3ccc4c(c3)OCO4)[C@@H]2C(=O)O)c(OC)c1 (racemic) [Example 76]")
"110 to 113 °C"
>>> reading("COc1ccc([C@@H]2c3cc(O)ccc3[C@H](c3cc4c(cc3OC)OCO4)[C@H]2C(=O)O)cc1 (racemic) [Example 82]")
"236 to 239 °C"

# next compound below
Request the reported melting point associated with O=C(O)[C@H]1[C@H](c2ccc3c(c2)OCO3)c2ccc(O)cc2[C@@H]1c1ccc(OC(F)(F)F)cc1 (racemic) [Example 108]
100 to 104 °C

###

ENDPOINT_NAME: melting point

>>> reading("CCCCc1ccc2c(c1)[C@H](c1ccc(OC)cc1OCC(=O)O)[C@@H](C(=O)O)[C@@H]2c1ccc2c(c1)OCO2 (racemic)")
"176 to 177 °C"
>>> reading("CCc1ccc([C@@H]2c3ccccc3[C@H](c3ccccc3)[C@H]2C(=O)O)cc1 (racemic)")
"163 to 164 °C"
>>> reading("O=C(O)[C@H]1[C@H](c2ccc(F)cc2)c2ccccc2[C@@H]1c1ccc2c(c1)OCO2 (racemic)")
"146 to 149 °C"

Request the reported melting point associated with COc1ccc([C@H]2c3ccccc3[C@@H](c3ccc(NC(C)=O)cc3)[C@H]2C(=O)O)cc1 (racemic)
231 to 232 °C

###

Readings of melting point for the listed compounds

Please review the following examples before continuing.
>>> reading("COc1ccc([C@@H]2c3cc(OC)ccc3[C@H](c3ccc4c(c3OC)OCO4)[C@H]2C(=O)O)cc1 (racemic)")
"148 to 149 °C"
>>> reading("O=C(O)[C@H]1[C@H](c2ccc3c(c2)OCO3)c2ccccc2[C@@H]1c1ccccc1 (racemic)")
"186 to 187 °C"
>>> reading("CCCOc1ccc2c(c1)[C@H](c1ccc(OC)cc1Oc1ncccc1C(=O)O)[C@@H](C(=O)O)[C@@H]2c1ccc2c(c1)OCO2 (racemic)")
"152 to 155 °C"

Request the reported melting point associated with C=CCOc1cc(OC)ccc1[C@H]1c2cc(OCCC)ccc2[C@@H](c2ccc3c(c2)OCO3)[C@@H]1C(=O)O (racemic)
168 to 170 °C

Request the reported melting point associated with CCCOc1ccc2c(c1)[C@H](c1ccc(OC)cc1-c1ccccc1)[C@@H](C(=O)O)[C@@H]2c1ccc2c(c1)OCO2 (racemic)
199 to 200 °C

Request the reported melting point associated with O=C(O)C1[C@H](c2ccc3c(c2)OCO3)c2ccccc2[C@H]1c1ccc2c(c1)OCO2 (racemic)
182 to 185 °C

###

ENDPOINT_NAME: melting point

>>> reading("COc1ccc([C@@H]2c3cc(O)ccc3[C@H](c3c[nH]c4ccccc34)[C@H]2C(=O)O)cc1 (racemic) [Example 109]")
"138 to 140 °C"
>>> reading("COc1ccc([C@@H]2c3ccccc3[C@H](c3cc(OC)c(OC)c(OC)c3)[C@H]2C(=O)O)cc1 (racemic) [Example 72]")
"197 to 198 °C"
>>> reading("COc1ccc([C@@H]2c3ccccc3[C@H](c3ccccc3)[C@H]2C(=O)O)cc1 (racemic) [Example 1]")
"164 to 166 °C"

Request the reported melting point associated with O=C(O)[C@H]1[C@H](c2ccc3c(c2)OCO3)c2ccc(OCc3ccccc3)cc2[C@@H]1c1ccc2c(c1)OCO2 (racemic) [Example 116]
191 to 193 °C

Request the reported melting point associated with COc1ccc([C@@H]2c3ccc(O)cc3[C@H](c3ccc4c(c3)OCO4)[C@H]2C(=O)O)cc1 (racemic) [Example 81]
124 to 127 °C

Request the reported melting point associated with CCCOc1ccc2c(c1)[C@@H](c1ccc(OC)cc1OCC(=O)O)[C@@H](C(=O)O)[C@H]2c1cc2c(cc1OC)OCO2 (racemic) [Example 30]
188 to 190 °C

Request the reported melting point associated with CCCOc1ccc2c(c1)[C@H](c1ccccc1OCC(=O)O)[C@@H](C(=O)O)[C@@H]2c1ccc2c(c1)OCO2 (racemic) [Example 37]
169 to 170 °C
